biological target: Mu-type opioid receptor (Cavia porcellus, UniProt P97266); assay: Agonistic activity towards Opioid receptor mu 1 was determined in [35S]GTP-gamma-S, binding assay in guinea pig caudate; g = not active as an agonist; format: functional; conditions: read-out: EC50
Sequence (P97266 whole entry): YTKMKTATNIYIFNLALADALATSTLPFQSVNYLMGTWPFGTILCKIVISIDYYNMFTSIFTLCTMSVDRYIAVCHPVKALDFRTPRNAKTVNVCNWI
Assay Endpoint: EC50 (µM)
Write down the numeric answer in µM and omit the unit.

# example entries with known answers
CN1CC[C@]23c4c5ccc(O)c4O[C@H]2c2ncc(-c4ccc(Cl)c(Cl)c4)cc2C[C@H]3[C@H]1C5; 1.31
CN1CC[C@]23c4c5ccc(O)c4O[C@H]2c2ncc(-c4ccc(Cl)cc4)cc2C[C@H]3[C@H]1C5; 0.9

Query: Request the reported EC50 associated with "CN1CC[C@]23c4c5ccc(O)c4O[C@H]2c2ncc(-c4ccc(Cl)cc4Cl)cc2C[C@H]3[C@H]1C5"
Reply: 0.225

Query: Fill in the blank: the reported EC50 of "CN1CC[C@]23c4c5ccc(O)c4O[C@H]2c2ncc(-c4ccc(Br)cc4)cc2C[C@H]3[C@H]1C5" is ____.
Reply: 3.22

----------
molecular target: Delta-type opioid receptor (Mus musculus) (UniProt P32300); settings: Vas deferens
Sequence (P32300 whole entry): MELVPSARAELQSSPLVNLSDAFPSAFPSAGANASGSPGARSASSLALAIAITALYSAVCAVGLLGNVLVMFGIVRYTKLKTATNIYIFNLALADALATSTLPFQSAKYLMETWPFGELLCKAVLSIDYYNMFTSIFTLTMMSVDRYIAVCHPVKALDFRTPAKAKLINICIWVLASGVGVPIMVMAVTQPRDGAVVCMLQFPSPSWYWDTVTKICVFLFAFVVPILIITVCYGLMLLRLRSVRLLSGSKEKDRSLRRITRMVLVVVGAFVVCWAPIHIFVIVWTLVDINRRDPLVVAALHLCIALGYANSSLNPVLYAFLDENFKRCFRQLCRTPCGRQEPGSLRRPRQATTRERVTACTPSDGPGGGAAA
Response field label: string, one of label 1 (Ke strictly below 6 nM) or label 0.

CN1CC[C@]23c4c5ccc(O)c4O[C@H]2c2ncc(-c4ccc(Cl)cc4Cl)cc2C[C@H]3[C@H]1C5; label 1
CN1CC[C@]23c4c5ccc(O)c4O[C@H]2c2ncc(-c4ccc(Br)cc4)cc2C[C@H]3[C@H]1C5; label 0
CN1CC[C@]23c4c5ccc(O)c4O[C@H]2c2ncc(-c4ccc(Cl)cc4)cc2C[C@H]3[C@H]1C5; label 0

Shifting focus to the compound that follows.
Query: Could you please tell me whether Ke recorded for "Oc1ccc2c3c1O[C@H]1c4ncc(-c5ccccc5)cc4C[C@@]4(O)[C@@H](C2)N(CC2CC2)CC[C@]314" is less than 6 nM?
Reply: label 1

----------
molecular target: Delta-type opioid receptor (Mus musculus) (UniProt P32300); experiment: Agonist activity by the maximum response towards opioid receptor delta 1 induced contractions in mouse vas deferens (MVD) smooth muscle contraction assays; format: functional, tissue-based
Assay Endpoint: Response (%)
Form entry: value (%) — number only.

Below: 2 compounds and their reported Response.
CN1CC[C@]23c4c5ccc(O)c4O[C@H]2c2ncc(-c4ccc(Cl)cc4)cc2C[C@@]3(O)[C@H]1C5; 58
Oc1ccc2c3c1O[C@H]1c4ncc(-c5ccccc5)cc4C[C@@]4(O)[C@@H](C2)N(CC2CC2)CC[C@]314; 4.7

Query: Need Response of "Oc1ccc2c3c1O[C@H]1c4ncccc4C[C@@]4(O)[C@@H](C2)N(CC2CC2)CC[C@]314" , thanks.
Reply: 0

Query: Query (compound): "CN1CC[C@]23c4c5ccc(O)c4O[C@H]2c2ncc(-c4ccc(Br)cc4)cc2C[C@H]3[C@H]1C5" ; field requested: Response
Reply: 44

Query: Consider the compound "Oc1ccc2c3c1O[C@H]1c4ncc(-c5ccc(Cl)cc5)cc4C[C@@]4(O)[C@@H](C2)N(CC2CC2)CC[C@]314" and give its measured Response.
Reply: 21

----------
organism: Cavia porcellus; assay: Selectivity given as ratio of kappa receptor to delta receptor
Assay Endpoint: Ratio
Please give only the number in your answer, with no unit.

Query: Form field: reported Ratio of "Oc1ccc2c3c1O[C@H]1c4ncc(-c5ccc(Cl)cc5)cc4C[C@H]4[C@@H](C2)N(CC2CC2)CC[C@]314"
Reply: 2.3

Query: Sample "CN1CC[C@]23c4c5ccc(O)c4O[C@H]2c2ncc(-c4ccc(Cl)cc4)cc2C[C@@]3(O)[C@H]1C5" — what was its Ratio?
Reply: 120

Query: I would be grateful if you could share the reported Ratio for "Oc1ccc2c3c1O[C@H]1c4ncc(-c5ccccc5)cc4C[C@@]4(O)[C@@H](C2)N(CC2CC2)CC[C@]314" .
Reply: 20

Query: Could you share which Ratio value was measured for "CN1CC[C@]23c4c5ccc(O)c4O[C@H]2c2ncc(-c4ccc(Cl)c(Cl)c4)cc2C[C@H]3[C@H]1C5" ?
Reply: 75

----------
Quick reference: pKi of the listed items.
target: Delta-type opioid receptor (Rattus norvegicus, UniProt P33533); experiment: Binding affinity at opioid receptor delta 1 by displacement of [3H]DADLE in rat brain membrane
Sequence (P33533 whole entry): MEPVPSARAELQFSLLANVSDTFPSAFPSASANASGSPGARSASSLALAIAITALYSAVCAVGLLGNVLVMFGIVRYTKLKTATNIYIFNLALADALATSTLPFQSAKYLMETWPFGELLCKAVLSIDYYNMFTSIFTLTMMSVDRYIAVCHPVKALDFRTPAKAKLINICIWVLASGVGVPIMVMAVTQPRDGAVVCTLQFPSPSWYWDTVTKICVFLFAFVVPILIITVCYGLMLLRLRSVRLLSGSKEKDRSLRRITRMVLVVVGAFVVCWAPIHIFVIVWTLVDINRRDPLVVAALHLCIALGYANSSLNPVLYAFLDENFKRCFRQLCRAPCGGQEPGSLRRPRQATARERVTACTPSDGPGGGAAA
Convention used: pKi is expressed as -log10 of the molar concentration.

Guide cases for pKi, answers given:
C[C@@H](NC(=O)[C@@H](N)Cc1ccc(O)cc1)C(=O)NCC(=O)N(C)[C@@H](Cc1ccccc1)C(=O)NCCO [DAMGO]; 6.33
Oc1ccc2c3c1O[C@H]1c4[nH]c5ccccc5c4C[C@@]4(O)[C@@H](C2)N(CC2CC2)CC[C@]314 [NALTRINDOLE]; 8.80
CN1CC[C@]23c4c5ccc(O)c4O[C@H]2c2ncc(-c4ccc(Cl)cc4)cc2C[C@@]3(O)[C@H]1C5; 8.41
COc1ccc2c3c1O[C@H]1c4ncc(-c5ccc(Br)cc5)cc4C[C@@]4(O)[C@@H](C2)N(C)CC[C@]314; 7.64
CN1CC[C@]23c4c5ccc(O)c4O[C@H]2c2ncc(-c4ccc(Br)cc4)cc2C[C@@]3(O)[C@H]1C5; 8.40

Now look at this entry.
Query: Look up pKi for this molecule: "COc1ccc2c3c1O[C@H]1c4ncc(-c5ccccc5)cc4C[C@@]4(O)[C@@H](C2)N(C)CC[C@]314"
Reply: 7.47

----------
biological target: Kappa-type opioid receptor (Cavia porcellus, UniProt P41144); test: Inhibitory concentration required for 50% inhibition of antagonism towards Opioid receptor kappa 1 in [35S]GTP-gamma-S, binding assay in guinea pig caudate; assay type: functional
Sequence (P41144 whole entry): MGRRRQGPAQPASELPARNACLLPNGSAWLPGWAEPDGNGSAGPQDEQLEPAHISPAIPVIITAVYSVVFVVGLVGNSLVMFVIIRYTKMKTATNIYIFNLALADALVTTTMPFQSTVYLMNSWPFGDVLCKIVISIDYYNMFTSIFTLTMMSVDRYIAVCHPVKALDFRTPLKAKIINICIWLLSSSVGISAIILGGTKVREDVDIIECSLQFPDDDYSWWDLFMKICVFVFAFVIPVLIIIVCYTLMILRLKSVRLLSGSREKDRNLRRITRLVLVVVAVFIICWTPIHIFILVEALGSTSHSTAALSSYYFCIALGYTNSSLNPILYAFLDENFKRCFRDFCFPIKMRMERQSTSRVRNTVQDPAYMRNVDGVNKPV
Assay Endpoint: pKi
Quick note: pKi values are minus log10 of concentrations in mol/L.

Query: For the molecule "CN1CC[C@]23c4c5ccc(O)c4O[C@H]2c2ncc(-c4ccc(Cl)c(Cl)c4)cc2C[C@H]3[C@H]1C5" , what pKi is on record?
Reply: 5.32
